Biological target: Orexin/Hypocretin receptor type 1 (Homo sapiens)
Sequence (O43613 whole entry): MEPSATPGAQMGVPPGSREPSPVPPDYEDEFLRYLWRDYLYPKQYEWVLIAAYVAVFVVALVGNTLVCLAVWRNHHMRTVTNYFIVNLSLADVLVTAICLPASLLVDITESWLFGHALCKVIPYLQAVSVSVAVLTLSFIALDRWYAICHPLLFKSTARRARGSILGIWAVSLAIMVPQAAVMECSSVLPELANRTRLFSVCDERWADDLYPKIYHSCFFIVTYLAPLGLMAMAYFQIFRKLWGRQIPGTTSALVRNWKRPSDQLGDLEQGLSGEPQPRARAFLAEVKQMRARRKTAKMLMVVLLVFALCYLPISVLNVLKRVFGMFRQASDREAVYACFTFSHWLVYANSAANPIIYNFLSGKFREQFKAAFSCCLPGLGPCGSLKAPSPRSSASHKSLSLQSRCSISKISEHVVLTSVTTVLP
Assay: Antagonist activity at human Ox1R overexpressed in rat Chem-1 cells assessed as inhibition of orexin A induced calcium flux preincubated for 15 mins followed by orexin A addition by FLIPR analysis
pIC50: −log10 of the molar value.
The compounds listed here are annotated with their pIC50.
measuredEndpoint: pIC50

>>> readoutvalue("Cc1ccc(-n2nccn2)c(C(=O)N[C@H]2CCC[C@@H]2Nc2nc3ccc(F)cc3s2)c1")
7.77
>>> readoutvalue("CCc1nc(C(F)(F)F)cnc1N[C@H]1CCC[C@@H]1NC(=O)c1ncccc1-n1nccn1 [CVN-766]")
8.10
>>> readoutvalue("CCc1nc(C(F)(F)F)cnc1N[C@@H]1CCC[C@H]1NC(=O)c1ncccc1-n1nccn1")
5.91
